From: the supplement of paper PMC10567573

# protocol.notes: protein stability index of a GFP-peptide fusion (GPS, HEK-293T) (PSI 1-6); higher = more stable;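 note: 24-mer peptide tiles fused after GFP, lentivirally expressed, FACS-sorted into six equal bins by GFP/DsRed ratio, decoded by Illumina sequencing, PSI is the read-weighted mean bin number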
# cond: treatment: MLN4924 1 uM, 8 h; c terminus: a fixed tail appended
measured.parameter: protein stability index

Guide cases for protein stability index, answers given:
biosequence="SSMKKFCRPLLPSCTTRLCQEEQL [PSD2]" recorded_measurement=2.98
biosequence="GSKLEKGHLRGPEIRDWRGPQLEG [ZSWIM9]" recorded_measurement=3.85
biosequence="WLEDEPGRGAQGENERVRGLETGD [ZSWIM9]" recorded_measurement=5.48
biosequence="PFDMDSCLSRHSINPYSNRESRIL [DFFB]" recorded_measurement=3.22
biosequence="YTVRAPVGVAGLISPWNLPLYLLT [ALDH8A1]" recorded_measurement=2.14
biosequence="EGASPLSERCQRQLQSLCRGLGLG [FANCE]" recorded_measurement=3.02
biosequence="LIKAKSQARLEEQQRLAHLEDKLR [LRRC45]" recorded_measurement=3.96
biosequence="GGFLSESKDCKPPVYLLLELEDKD [MYBL2]" recorded_measurement=4.17

According to the records, this sequence LPNFAFSVPLAYFLLSQQTDLPEC [TCF25] displays protein stability index of 2.94
